Recorded values, source paper PMC2756145.

- targetUnderTest: T1, Pot1-DBD (Schizosaccharomyces pombe, UniProt O13988 1-389)
- T1 sequence: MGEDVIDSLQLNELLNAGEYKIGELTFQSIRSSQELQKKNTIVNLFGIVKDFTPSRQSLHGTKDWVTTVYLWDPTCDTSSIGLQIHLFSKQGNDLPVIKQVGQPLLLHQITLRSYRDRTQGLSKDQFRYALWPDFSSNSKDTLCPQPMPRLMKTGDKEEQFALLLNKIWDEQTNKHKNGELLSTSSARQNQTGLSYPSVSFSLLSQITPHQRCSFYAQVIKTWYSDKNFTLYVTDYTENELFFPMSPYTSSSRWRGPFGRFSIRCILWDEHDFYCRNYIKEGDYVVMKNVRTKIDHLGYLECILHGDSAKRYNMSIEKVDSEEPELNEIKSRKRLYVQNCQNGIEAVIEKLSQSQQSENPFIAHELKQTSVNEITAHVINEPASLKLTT
- test: filter binding
propertyName: Kd (nM)
Answer format: numeric, nM implied, no suffix.

GGTTACGGTTAC (ssDNA) [12mer] has a reported Kd of 1
